test: Estimated solubility by solvent addition method via visual assessment; type: physicochemical; conditions: organic solvent or mixture, thermodynamic from solid; DMSO, 70° C.; read-out: Solubility, Concentration
PROPERTY_MEASURED: solubility

**Query** Give the reported solubility for this compound. Cc1n[nH]c2nc(-c3ccc(NS(=O)(=O)c4cc(F)ccc4F)c(F)c3)nc(NCCN(C)C)c12.Cl [Compound 3 Form B]
**Result** > 40 mg/mL

###

test: Estimated solubility by solvent addition method via visual assessment; format: physicochemical; conditions: organic solvent or mixture, thermodynamic from solid; DCM/MeOH (3/1), RT; read-out: Solubility, Concentration
PROPERTY_MEASURED: solubility

**Query** Give me measured solubility, please, for this molecule: Cc1n[nH]c2nc(-c3ccc(NS(=O)(=O)c4cc(F)ccc4F)c(F)c3)nc(NCCN(C)C)c12.Cl [Compound 3 Form B]
**Result** < 1500 µg/mL
